Tested on: common ragweed
Assay: Upland post-emergence treatment test, common ragweed; further: ranges in brackets are in %
Type: in vivo, common ragweed (Ambrosia artemisilfolia)
Conditions: post-emergence spray at 3-4 leaf stage, 80 g/ha, 30th day after treatment, greenhouse
readoutKind: Herbicidal Efficacy DD = Common ragweed

[[record]]
compound = "Cc1c(C(=O)c2cnn(C)c2OC(=O)C2CCCCC2)ccc2c1C(C)(C)CS2(=O)=O"
experimentalvalue = "5 (0)"

[[record]]
compound = "CCCS(=O)(=O)Oc1c(C(=O)c2cc(C)c3c(c2C)C(C)(C)CS3(=O)=O)cnn1CC [Compound (A), reference compound]"
experimentalvalue = "2 (41-60)"

[[record]]
compound = "Cc1c(C(=O)c2cnn(C)c2OCC(=O)c2ccccc2)ccc2c1C(C)(C)CS2(=O)=O"
experimentalvalue = "5 (0)"


Now for the compound whose Herbicidal Efficacy DD = Common ragweed we want.
Name the recorded Herbicidal Efficacy DD = Common ragweed for `Cc1c(C(=O)c2cnn(C)c2OS(=O)(=O)c2ccc([N+](=O)[O-])cc2)ccc2c1C(C)(C)CS2(=O)=O` .
5 (0)

* * *

System: velvetleaf
Test: Upland pre-emergence treatment test, velvetleaf; further: ranges in brackets are in %
Format: in vivo, velvetleaf (Abutilon theophrasti)
Conditions: pre-emergence soil surface spray, 80 g/ha, 20th day after treatment, greenhouse
Listed molecules paired with reported Herbicidal Efficacy AA = Velvetleaf

Name the recorded Herbicidal Efficacy AA = Velvetleaf for CCCS(=O)(=O)Oc1c(C(=O)c2cc(C)c3c(c2C)C(C)(C)CS3(=O)=O)cnn1CC [Compound (A), reference compound] .
2 (41-60)

Lookup `Cc1c(C(=O)c2cnn(C)c2OC(=O)C2CCCCC2)ccc2c1C(C)(C)CS2(=O)=O`
5 (0)

Lookup `CCN(CC)CC.Cc1c(C(=O)c2cnn(C)c2O)ccc2c1C(C)(C)CS2(=O)=O`
5 (0)

Lookup `Cc1c(C(=O)c2cnn(C)c2OCC(=O)c2ccccc2)ccc2c1C(C)(C)CS2(=O)=O`
5 (0)

Lookup `CCCS(=O)(=O)Oc1c(C(=O)c2ccc3c(c2C)C(C)(C)CS3(=O)=O)cnn1C`
5 (0)

* * *

System: corn
Assay: Upland post-emergence treatment test, phytotoxicity to corn; further: ranges in brackets are in %
Type: in vivo
Conditions: post-emergence spray at 3-4 leaf stage, 80 g/ha, 30th day after treatment, greenhouse
From the text: 97 Parts by weight of talc (trade name: Zeaklite, supplied by Zeaklite Industry) as a carrier, 1.5 parts by weight of alkylarylsulfonic acid salt (trade name: Neoplex, supplied by Kao-Atlas K.K.) as a surfactant and 1.5 parts by weight of a nonionic and anionic surfactant (trade names Sorpol 800A, supplied by Toho Chemical Co., Ltd.) were uniformly pulverized and mixed to prepare a carrier for a wettable powder. […]
readoutKind: Phytotoxicity Corn

Sample answers from the record:
[[record]]
compound = "Cc1c(C(=O)c2cnn(C)c2OS(=O)(=O)C(C)C)ccc2c1C(C)(C)CS2(=O)=O"
experimentalvalue = "− (100)"

[[record]]
compound = "Cc1c(C(=O)c2cnn(C)c2OS(=O)(=O)CC(C)C)ccc2c1C(C)(C)CS2(=O)=O"
experimentalvalue = "− (100)"

[[record]]
compound = "CC(C)N.Cc1c(C(=O)c2cnn(C)c2O)ccc2c1C(C)(C)CS2(=O)=O"
experimentalvalue = "− (100)"

[[record]]
compound = "CCCS(=O)(=O)Oc1c(C(=O)c2cc(C)c3c(c2C)C(C)(C)CS3(=O)=O)cnn1CC [Compound (A), reference compound]"
experimentalvalue = "− (100)"


Name the recorded Phytotoxicity Corn for `Cc1ccc(C(=O)Oc2c(C(=O)c3ccc4c(c3C)C(C)(C)CS4(=O)=O)cnn2C)cc1` .
− (100)

Lookup `Cc1c(C(=O)c2cnn(C)c2OC(=O)c2ccccc2)ccc2c1C(C)(C)CS2(=O)=O`
− (100)

Lookup `COc1ccc(S(=O)(=O)Oc2c(C(=O)c3ccc4c(c3C)C(C)(C)CS4(=O)=O)cnn2C)cc1`
− (100)

Lookup `Cc1cc(C)c(S(=O)(=O)Oc2c(C(=O)c3ccc4c(c3C)C(C)(C)CS4(=O)=O)cnn2C)c(C)c1`
− (100)

Lookup `CCCCS(=O)(=O)Oc1c(C(=O)c2ccc3c(c2C)C(C)(C)CS3(=O)=O)cnn1C`
− (100)

Lookup `Cc1c(C(=O)c2cnn(C)c2OC(=O)C2CCCCC2)ccc2c1C(C)(C)CS2(=O)=O`
− (100)

Lookup `Cc1c(C(=O)c2cnn(C)c2O)ccc2c1C(C)(C)CS2(=O)=O`
− (100)

Lookup `CCC(=O)Oc1c(C(=O)c2ccc3c(c2C)C(C)(C)CS3(=O)=O)cnn1C`
− (100)

Lookup `Cc1ccc(S(=O)(=O)Oc2c(C(=O)c3ccc4c(c3C)C(C)(C)CS4(=O)=O)cnn2C)cc1`
− (100)

Lookup `Cc1c(C(=O)c2cnn(C)c2OS(=O)(=O)CCl)ccc2c1C(C)(C)CS2(=O)=O`
− (100)

Lookup `Cc1c(C(=O)c2cnn(C)c2OS(C)(=O)=O)ccc2c1C(C)(C)CS2(=O)=O`
− (100)

Lookup `Cc1c(C(=O)c2cnn(C)c2O)ccc2c1C(C)(C)CS2(=O)=O.[Na]`
− (100)

Lookup `CCCS(=O)(=O)Oc1c(C(=O)c2ccc3c(c2C)C(C)(C)CS3(=O)=O)cnn1C`
− (100)

Lookup `Cc1c(C(=O)c2cnn(C)c2OS(=O)(=O)c2ccc(Cl)cc2)ccc2c1C(C)(C)CS2(=O)=O`
− (100)

Lookup `CCc1ccc(S(=O)(=O)Oc2c(C(=O)c3ccc4c(c3C)C(C)(C)CS4(=O)=O)cnn2C)cc1`
− (100)

Lookup `Cc1c(C(=O)c2cnn(C)c2OCC(=O)c2ccccc2)ccc2c1C(C)(C)CS2(=O)=O`
− (100)
